The measured values listed here are drawn from ChEMBL document CHEMBL4130545.

test: Cytotoxic activity in African green monkey Vero cells by sulforhodamine B assay; type: cell-based; conditions: chlorocebus sabaeus
quantity-kind: CC50

Worked examples follow.
C=C(C)[C@@H]1CC[C@]2(C(=O)O)CC[C@]3(C)[C@H](CC[C@@H]4[C@@]5(C)CC[C@@H](O)C(C)(C)[C@@H]5CC[C@]43C)[C@@H]12 [EPIBETULINIC ACID] ... 107 µM
C=C(C=O)[C@@H]1CC[C@]2(C(=O)O)CC[C@]3(C)[C@H](CC[C@@H]4[C@@]5(C)CC[C@@H](O)[C@](C)(CO)[C@@H]5CC[C@]43C)[C@@H]12 ... > 500 µM

Could you now look at the following compound, please?
Entry C=C(C)[C@@H]1CC[C@]2(C(=O)O)CC[C@]3(C)[C@H](CC[C@@H]4[C@@]5(C)CC[C@@H](O)[C@](C)(CO)[C@@H]5CC[C@]43C)[C@@H]12 , CC50 reported as > 500 µM

----------
test system: DU-145; experiment: Cytotoxic activity in human DU145 cells by sulforhodamine B assay; format: functional
Reported CC50 is given for each of the following compounds.
Hi! Could you send only the number? It should be in µM, unit omitted.

CC1(C)CC[C@]2(C(=O)O)CC[C@]3(C)C(=CC[C@@H]4[C@@]5(C)CC[C@H](O)C(C)(C)[C@@H]5CC[C@]43C)[C@@H]2C1 ... 65.6

Attention now shifts to the item below.
Measured CC50, CC(=O)O[C@@]12CO[C@@H]1C[C@H](O)[C@@]1(C)C(=O)[C@H](O)C3=C(C)[C@@H](OC(=O)[C@H](O)[C@@H](NC(=O)OC(C)(C)C)c4ccccc4)C[C@@](O)([C@@H](OC(=O)c4ccccc4)[C@H]21)C3(C)C [DOCETAXEL ANHYDROUS] : 0.81

----------
test: Selectivity index, ratio of cytotoxic CC50 for HEK293 cells to cytotoxic CC50 for human KB cells; format: toxicity; details: HEK293 cells versus KB cells, read-out: Selectivity Index
// selectivity ratio lookup, one value per entry
Respond with the number and no other words.

C=C(C)[C@@H]1CC[C@]2(C(=O)O)CC[C@]3(C)[C@H](CC[C@@H]4[C@@]5(C)CC[C@H](O)C(C)(C)[C@@H]5CC[C@]43C)[C@@H]12 [BETULINIC ACID] ... 5.1

# molecule CC(=O)O[C@@]12CO[C@@H]1C[C@H](O)[C@@]1(C)C(=O)[C@H](O)C3=C(C)[C@@H](OC(=O)[C@H](O)[C@@H](NC(=O)OC(C)(C)C)c4ccccc4)C[C@@](O)([C@@H](OC(=O)c4ccccc4)[C@H]21)C3(C)C [DOCETAXEL ANHYDROUS] ; its selectivity ratio = 8.8

----------
test system: DU-145; test: Cytotoxic activity in human DU145 cells by sulforhodamine B assay; format: functional
Measured CC50 values are reported for all entries that follow.

C=C(C)[C@@H]1CC[C@]2(C(=O)O)CC[C@]3(C)[C@H](CC[C@@H]4[C@@]5(C)CC[C@@H](O)[C@](C)(CO)[C@@H]5CC[C@]43C)[C@@H]12 ... 53.1 to 97.2 µM
C=C(C)[C@@H]1CC[C@]2(C(=O)O)CC[C@]3(C)[C@H](CC[C@@H]4[C@@]5(C)CC[C@H](O)C(C)(C)[C@@H]5CC[C@]43C)[C@@H]12 ... > 500 µM

Lab note: next molecule to report on.
The recorded CC50 for C=C(C)[C@@H]1CC[C@]2(C(=O)O)CC[C@]3(C)[C@H](CC[C@@H]4[C@@]5(C)CCC(=O)C(C)(C)[C@@H]5CC[C@]43C)[C@@H]12 is 139 µM
